Examples of compounds with documented inhibition follow.
# Assay system: Mu-type opioid receptor (Homo sapiens)
# Condition label: Compound concentration 10 µM
# Description: PDSP Primary Binding target: OPRM1 - Compounds are tested at 10 uM concentration, plate are incubated at room temperature in the dark for 90 minutes. Reaction are stopped by vacuum filtration onto 0.3% polyethyleneimine soaked filter mats using Filtermate harvester. Scintilation cocktail is then melted onto microwave-dried filters on a hot plate and the radio activity is counted in Microbia counter.
Quick note: give the figure in %, leave out the unit.

Past entries and their recorded results:
COc1ccc(CNC(=O)c2cc(-c3cncc(Cl)c3)cnc2-c2ccccn2)nc1OC: 30.5
COC1CCN(c2cccc(-c3cc(NC(C)=O)nc(-n4nc(C)cc4C)n3)n2)CC1: 27.3
CN1CCN(c2ccc(Nc3c4ccccc4nc4ccccc34)cc2)CC1: 12.4
COC(=O)C1=C(C)NC(C)=C(C(=O)OCCCN2CCC(c3ccccc3)(c3ccccc3)CC2)[C@H]1c1cccc([N+](=O)[O-])c1: 92
Nc1nc2c(c(N3CCNCC3)n1)CCC1=C2[C@@H]2CCCC[C@@H]2O1: 26.7
CCc1ccc(OCc2ccccc2C(=O)Nc2ccc3nc(C)cc(N)c3c2)cc1: 81.7
Cc1csc(NC(=O)c2cc(F)cc(Oc3cncnc3)c2)n1: -8.28
COc1ccc(S(=O)(=O)c2cc(OC)ccc2S(=O)(=O)c2ccc([C@H](C)NS(C)(=O)=O)cc2)cc1: 11.3
O=C(O)C1CN(Cc2ccc(-c3nc4cc(Cc5ccccc5F)ccc4s3)c(F)c2)C1: -9.83
CCCn1c(=O)c2nc(C34CC5CC(CC3C5)C4)[nH]c2n(CCC)c1=O: 9.1

Req: Param readout= inhibition; system= Mu-type opioid receptor (Homo sapiens); entry= Cc1nc(-c2ccc(C(F)(F)F)cc2)sc1COc1ccc([C@H](CC(=O)O)c2ccon2)cc1 ; returns value.
Resp: -7.02

Req: Checklist item: inhibition tested on Mu-type opioid receptor (Homo sapiens), entry c1cc(CN2CCCNCCNCCCNCC2)ccc1CN1CCCNCCNCCCNCC1 , value?
Resp: 13.8

Req: Notebook entry, Mu-type opioid receptor (Homo sapiens) assay: inhibition of Clc1cccc(Cl)c1NC1=NCCN1 = ?
Resp: 3.84

Req: inhibition of N[C@H](C(=O)O)c1ccc(C(=O)O)c(C(=O)O)c1 on Mu-type opioid receptor (Homo sapiens)?
Resp: 29.8

Req: Please tell me: inhibition of CC1=C2C[C@H]3[C@@H](CC=C4C[C@@H](O)CC[C@@]43C)[C@@H]2CC[C@]12O[C@@H]1C[C@H](C)CN[C@H]1[C@H]2C , system Mu-type opioid receptor (Homo sapiens)?
Resp: 10.4
